Target: Cytochrome P450 1A2 (Homo sapiens) (UniProt P05177)
Sequence (P05177 whole entry, looked up): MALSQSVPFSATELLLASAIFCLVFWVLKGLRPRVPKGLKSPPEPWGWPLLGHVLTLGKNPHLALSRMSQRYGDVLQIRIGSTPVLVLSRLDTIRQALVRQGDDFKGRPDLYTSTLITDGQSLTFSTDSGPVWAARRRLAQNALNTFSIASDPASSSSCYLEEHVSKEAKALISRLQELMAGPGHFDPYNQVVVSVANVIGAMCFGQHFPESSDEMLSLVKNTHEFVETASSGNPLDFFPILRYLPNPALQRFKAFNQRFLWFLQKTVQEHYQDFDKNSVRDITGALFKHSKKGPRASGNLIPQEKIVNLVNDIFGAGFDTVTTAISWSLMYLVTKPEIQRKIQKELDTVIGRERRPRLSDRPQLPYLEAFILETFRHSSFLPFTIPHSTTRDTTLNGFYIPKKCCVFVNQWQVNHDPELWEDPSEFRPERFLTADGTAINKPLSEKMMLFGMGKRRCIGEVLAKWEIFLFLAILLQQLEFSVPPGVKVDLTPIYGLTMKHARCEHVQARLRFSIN
Test: Cytochrome P450 Family 1 Subfamily A Member 2 (CYP1A2) small molecule antagonists: luciferase reporter qHTS assay (AID 1671199); also: nearly all actives have a fitted effect of over 50% in size
Conditions: P450-Glo CYP1A2 enzyme, luciferin luminescence, 1 h; series mostly up to 115 µM
Inconclusive results are not listed. Calls of active or inactive are those of the source. Calls follow the shape of the dose curve; as a rule, active = well fitted inhibition curve with a large enough effect in the repeat runs; inconclusive = weak or mixed curves; inactive = no such curve, though single readings can be large or run the other way.
Your answer must be one of the following: active, inactive

Solved entries:
{"Compound": "CCN(CC)c1ccc(C=O)c(O)c1", "Group label": "active"}
{"Compound": "c1ccc(-c2ccc(C(c3ccccc3)n3ccnc3)cc2)cc1 (stereo not given)", "Group label": "active"}
{"Compound": "CCCCCN=C(N)N/N=C/c1c[nH]c2ccc(OC)cc12", "Group label": "active"}
{"Compound": "NCc1cccc(C2CCN(C(=O)c3ccc(C#Cc4ccccc4F)o3)CC2)c1", "Group label": "active"}
{"Compound": "c1ccc2cc3c4ccccc4c4ccccc4c3cc2c1", "Group label": "active"}
{"Compound": "Oc1cccc2c(O)cccc12", "Group label": "active"}
{"Compound": "O=C(Cl)c1ccc(Cl)cc1Cl", "Group label": "active"}
{"Compound": "CCCCCCCCCCCCN1CCCC1=O", "Group label": "active"}
{"Compound": "CC(C)c1ccc2sc3ccccc3c(=O)c2c1", "Group label": "active"}
{"Compound": "Nc1ccc(Oc2cccc(Oc3ccc(N)cc3)c2)cc1", "Group label": "inactive"}

Ask: Returns: the outcome recorded for O=C1OC2(c3ccccc31)c1ccc(O)c(Br)c1Oc1c2ccc(O)c1Br in this assay.
Reply: inactive

Ask: Returns: the outcome recorded for O=C1CCC(=O)N1 in this assay.
Reply: inactive

Ask: Returns: the outcome recorded for CCCCCCCCCCCCCCCCC(C(=O)O)C(O)(CC(=O)O)C(=O)O (stereo not given) in this assay.
Reply: inactive

Ask: Returns: the outcome recorded for Nc1c(Br)cc([N+](=O)[O-])cc1Br in this assay.
Reply: active

Ask: Returns: the outcome recorded for O=C1CCCCCCCCCCCCCC1 in this assay.
Reply: inactive

Ask: Returns: the outcome recorded for CC1CCC(C(C)(C)O)CC1 (stereo not given) in this assay.
Reply: inactive

Ask: Returns: the outcome recorded for O=C(Nc1ccccc1)c1cc(Cl)ccc1O in this assay.
Reply: active

Ask: Returns: the outcome recorded for C=CC(=O)OCC(Br)CBr (stereo not given) in this assay.
Reply: inactive

Ask: Returns: the outcome recorded for CC1(C)[C@H]2CC[C@]1(C)C(=O)C2 in this assay.
Reply: inactive

Ask: Returns: the outcome recorded for O=C1OC(=O)c2cc(-c3ccc4c(c3)C(=O)OC4=O)ccc21 in this assay.
Reply: active

Ask: Returns: the outcome recorded for O=C1C=CC(=O)N1c1cccc(N2C(=O)C=CC2=O)c1 in this assay.
Reply: active

Ask: Returns: the outcome recorded for O=C1c2ccccc2C(=O)c2c(Cl)cccc21 in this assay.
Reply: active

Ask: Returns: the outcome recorded for Nc1ccc2c(S(=O)(=O)O)cccc2c1S(=O)(=O)O in this assay.
Reply: inactive

Ask: Returns: the outcome recorded for Cc1cccc2c1ccc1ccccc12 in this assay.
Reply: active

Ask: Returns: the outcome recorded for CC/C=C(\C)C=O in this assay.
Reply: active

Ask: Returns: the outcome recorded for C=Cc1ccc(O)c(OC)c1 in this assay.
Reply: active

Ask: Returns: the outcome recorded for C1=CCCC1 in this assay.
Reply: inactive

Ask: Returns: the outcome recorded for CC(CC(C)(C)C)CC(C)(C)CC(C)(C)C (stereo not given) in this assay.
Reply: inactive

Ask: Returns: the outcome recorded for CN[C@H]1CC[C@@H](c2ccc(Cl)c(Cl)c2)c2ccc(S(N)(=O)=O)cc21 in this assay.
Reply: inactive

Ask: Returns: the outcome recorded for O=C(Nc1ccc([N+](=O)[O-])cc1)Nc1ccc([N+](=O)[O-])cc1 (tested in a mixture with another compound) in this assay.
Reply: inactive

Values were extracted from PubChem BioAssay (Tox21).
